target: Human immunodeficiency virus type 1 integrase (Human immunodeficiency virus 1); assay: Inhibition of HIV1 integrase using labelled oligonucleotide substrate by ELISA
EXPERIMENTAL READOUT: IC50 (µM)
Write down the numeric answer in µM and omit the unit.

-- ask Requested field: IC50. Item: "O=C1NC(=S)NC(=O)C1=Cc1ccc(-c2ccc(Cl)c(C(=O)O)c2)o1"
-- reply 41.7

-- ask Quick one: IC50 of "O=C1NC(=S)NC(=O)C1=Cc1ccc(-c2ccc(O)c(C(=O)O)c2)o1" ?
-- reply 33.4

-- ask Consider the compound shown here: "Cc1ccc(C(=O)O)cc1-c1ccc(C=C2C(=O)NC(=S)NC2=O)o1" What is its recorded IC50?
-- reply 46.4

-- ask Consider the compound "Cc1cc(-c2ccc(C(=O)O)c(O)c2)oc1C=C1C(=O)NC(=S)NC1=O" and give its measured IC50.
-- reply 90.9

-- ask Recorded IC50 for "Cc1cc(-c2ccc(C(=O)O)c(O)c2)oc1/C=C1\SC(=S)NC1=O" , please?
-- reply 158

-- ask Look up IC50 for this compound: "Cc1c(-c2ccc(C=C3C(=O)NC(=S)NC3=O)o2)cccc1[N+](=O)[O-]"
-- reply 58.4

-- ask // query IC50 value for entry "O=C1NC(=S)N/C1=C\c1ccc(-c2ccc(C(=O)O)c(O)c2)o1"
-- reply 107

-- ask Report IC50 for "O=C1NC(=S)S/C1=C\c1ccc(-c2cc(C(=O)O)cc(O)c2O)o1" please.
-- reply 15.5

-- ask Value lookup for IC50; key = "O=C1NC(=S)S/C1=C\c1ccc(-c2ccc(C(=O)O)c(O)c2)o1"
-- reply 182

-- ask Need IC50, item "O=C1NC(=S)N/C1=C\c1ccc(-c2ccc(O)c(C(=O)O)c2)o1"
-- reply 50.9

-- ask Data request, read-out IC50, for "O=C1NC(=S)NC(=O)C1=Cc1ccc(-c2ccc(C(=O)O)c(O)c2)o1"
-- reply 8.94

-- ask Which IC50 is listed for "O=C1NC(=S)NC(=O)C1=Cc1ccc(-c2cc(C(=O)O)cc3c2OCO3)o1" ?
-- reply 56.5

====

target: Human immunodeficiency virus type 1 integrase (Human immunodeficiency virus 1, UniProt Q7ZJM1); test: Inhibition of HIV1 integrase using labelled oligonucleotide substrate by ELISA
Sequence (Q7ZJM1 whole entry): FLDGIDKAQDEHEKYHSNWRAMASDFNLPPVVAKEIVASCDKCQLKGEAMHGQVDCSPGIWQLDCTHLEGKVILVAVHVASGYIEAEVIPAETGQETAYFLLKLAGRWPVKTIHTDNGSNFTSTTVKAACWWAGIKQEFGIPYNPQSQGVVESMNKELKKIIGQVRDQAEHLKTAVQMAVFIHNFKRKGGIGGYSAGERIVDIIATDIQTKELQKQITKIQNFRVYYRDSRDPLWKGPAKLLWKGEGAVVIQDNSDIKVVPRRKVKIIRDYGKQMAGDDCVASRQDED
EXPERIMENTAL READOUT: IC50

-- ask Requested read-out: IC50. Entry: "Cc1cc(-c2ccc(C(=O)O)c(O)c2)oc1/C=C1\NC(=S)NC1=O"
-- reply > 250 µM

-- ask May I ask what IC50 has been recorded for "O=C1NC(=S)NC(=O)C1=Cc1ccc(-c2cc(C(=O)O)cc(O)c2O)o1" ?
-- reply 5.06 µM

-- ask Need IC50 of "O=C1NC(=S)NC(=O)C1=Cc1ccc(-c2ccc(F)cc2C(=O)O)o1" , thanks.
-- reply 184 µM

-- ask For "COc1cc(-c2ccc(C=C3C(=O)NC(=S)NC3=O)o2)c(Cl)cc1C(=O)O" , what is its reported IC50?
-- reply 43.2 µM

-- ask # input compound: "COc1cc(C(=O)O)cc(OC)c1-c1ccc(C=C2C(=O)NC(=S)NC2=O)o1" ; wanted: its IC50
-- reply 167 µM

====

biological target: Human immunodeficiency virus type 1 integrase (Human immunodeficiency virus 1, UniProt Q7ZJM1); experiment: Inhibition of HIV1 integrase 3'-processing activity using labelled oligonucleotide substrate by ELISA
EXPERIMENTAL READOUT: pIC50
Remember the convention: pIC50 equals -log10 of concentration in molar.

-- ask // query pIC50 value for entry "O=C1NC(=S)NC(=O)C1=Cc1ccc(-c2cc(C(=O)O)cc(O)c2O)o1"
-- reply 5.24

-- ask I have this compound here, "Cc1ccc(C(=O)O)cc1-c1ccc(C=C2C(=O)NC(=S)NC2=O)o1" , and I need its recorded pIC50.
-- reply 4.60

-- ask I have this compound here, "Cc1cc(-c2ccc(C(=O)O)c(O)c2)oc1C=C1C(=O)NC(=S)NC1=O" , and I need its recorded pIC50.
-- reply 3.90

-- ask Sample "O=C1NC(=S)NC(=O)C1=Cc1ccc(-c2ccc(F)cc2C(=O)O)o1" — what was its pIC50?
-- reply 4.33

-- ask Bench note: what pIC50 did "Cc1cc(-c2ccc(C(=O)O)c(O)c2)oc1/C=C1\SC(=S)NC1=O" show?
-- reply 3.87

-- ask Which pIC50 value belongs to "O=C1NC(=S)S/C1=C\c1ccc(-c2cc(C(=O)O)cc(O)c2O)o1" ?
-- reply 4.65

-- ask Recorded pIC50 of "O=C1NC(=S)N/C1=C\c1ccc(-c2ccc(C(=O)O)c(O)c2)o1" , please.
-- reply 4.13

-- ask For "O=C1NC(=S)NC(=O)C1=Cc1ccc(-c2cc(C(=O)O)cc3c2OCO3)o1" , what is its reported pIC50?
-- reply 4.15

-- ask Please give the measured pIC50 for this compound: "COc1cc(-c2ccc(C=C3C(=O)NC(=S)NC3=O)o2)c(Cl)cc1C(=O)O"
-- reply 4.45

-- ask What value of measured pIC50 is listed for "O=C1NC(=S)NC(=O)C1=Cc1ccc(-c2ccc(C(=O)O)c(O)c2)o1" ?
-- reply 5.56

-- ask Need pIC50, item "O=C1NC(=S)NC(=O)C1=Cc1ccc(-c2ccc(O)c(C(=O)O)c2)o1"
-- reply 4.28

-- ask Requested read-out: pIC50. Entry: "O=C1NC(=S)NC(=O)C1=Cc1ccc(-c2ccc(Cl)c(C(=O)O)c2)o1"
-- reply 4.89

-- ask Give the measured pIC50 of "Cc1c(-c2ccc(C=C3C(=O)NC(=S)NC3=O)o2)cccc1[N+](=O)[O-]" .
-- reply 4.39
